Test: solvent given as SMILES
Settings: in CCCCCCCCO
Listing: solvation free energy, 298 K of selected compounds
State the result as a value with its unit after it.

Sample answers from the record:
- CC(=O)OCC(C)C: -4.71 kcal/mol
- CCCCCCCCC: -5.29 kcal/mol
- CCCCC: -2.7 kcal/mol

Record `ClC(Cl)(Cl)C(Cl)(Cl)Cl` , field solvation free energy, 298 K: -6.1 kcal/mol

Record `CCc1ccc2c(c1)C(=O)c1ccccc1C2=O` , field solvation free energy, 298 K: -12.5 kcal/mol

Record `FCF` , field solvation free energy, 298 K: -0.57 kcal/mol

Record `FC(F)(Cl)Cl` , field solvation free energy, 298 K: -1.34 kcal/mol

Record `O=[N+]([O-])c1cccc2ccccc12` , field solvation free energy, 298 K: -9.98 kcal/mol

Record `CCOC(C)=O` , field solvation free energy, 298 K: -3.69 kcal/mol

Record `CCCCl` , field solvation free energy, 298 K: -3.06 kcal/mol

Record `c1cc2ccc3cccc4ccc(c1)c2c34` , field solvation free energy, 298 K: -11.9 kcal/mol

Record `c1ccc2c(c1)Sc1ccccc1S2` , field solvation free energy, 298 K: -11.6 kcal/mol

Record `CCCCCC=O` , field solvation free energy, 298 K: -5.95 kcal/mol

Record ClC1=C(Cl)C2(Cl)C3C4C=CC(C4)C3C1(Cl)C2(Cl)Cl (stereo not given) , field solvation free energy, 298 K: -11.3 kcal/mol

Record `C1CCNC1` , field solvation free energy, 298 K: -5.55 kcal/mol

Record `Clc1cc(Cl)c(-c2ccc(Cl)c(Cl)c2Cl)cc1Cl` , field solvation free energy, 298 K: -13.2 kcal/mol

###

Test: solvent given as SMILES
Details: in CCNC=O
measuredAttribute: solvation free energy, 298 K (kcal/mol)
# unit: kcal/mol | format: bare number

Sample answers from the record:
- CCOCC: -2.78
- CCC(C)(C)OC: -3.79
- CCCCC: -2.11
- C1CCOC1: -3.93
- CCCCCC: -2.69

Let us examine a further case.
Record `CC(C)=O` , field solvation free energy, 298 K: -3.72

###

Test: solvent given as SMILES
Conditions: in CS(C)=O
Could you please mark Condition met for values of solvation free energy, 298 K below -20 kJ/mol and Condition not met for values at or above it?

Examples from the recorded data:
* C1CCOC1 | Condition not met
* C[N+](=O)[O-] | Condition met
* CC(C)=O | Condition not met
* CC=C(C)C | Condition not met
* C#CCCCCC | Condition not met
* CC(C)CCC(C)C | Condition not met
* CCCCCCCCC | Condition not met
* C=CC | Condition not met

Query :: # strict comparison: is reported solvation free energy, 298 K < -20 kJ/mol? input = `CCO`
Result :: Condition met

Query :: # strict comparison: is reported solvation free energy, 298 K < -20 kJ/mol? input = `CCCCCC`
Result :: Condition not met

###

Assay: solvent given as SMILES
Conditions: in CO
Could you please mark yes (1) for values of solvation free energy, 298 K below -4 kcal/mol and no (0) for values at or above it?

Examples from the recorded data:
* CCc1ccc2c(c1)C(=O)c1ccccc1C2=O | yes (1)
* c1cc2ccc3cccc4ccc(c1)c2c34 | yes (1)
* c1ccc2ccccc2c1 | yes (1)
* C[N+](=O)[O-] | yes (1)
* CCC(C)(C)OC | yes (1)

Query :: # strict comparison: is reported solvation free energy, 298 K < -4 kcal/mol? input = `NC(=O)c1ccccc1O`
Result :: yes (1)

Query :: # strict comparison: is reported solvation free energy, 298 K < -4 kcal/mol? input = `c1ccc(-c2ccccc2)cc1`
Result :: yes (1)

Query :: # strict comparison: is reported solvation free energy, 298 K < -4 kcal/mol? input = `CC(C)CCC(C)C`
Result :: no (0)

Query :: # strict comparison: is reported solvation free energy, 298 K < -4 kcal/mol? input = `CCCCC(=O)CC`
Result :: yes (1)

Query :: # strict comparison: is reported solvation free energy, 298 K < -4 kcal/mol? input = `O=C(O)Cc1ccccc1Nc1c(Cl)cccc1Cl`
Result :: yes (1)

Query :: # strict comparison: is reported solvation free energy, 298 K < -4 kcal/mol? input = `CCCCC(C)=O`
Result :: yes (1)

Query :: # strict comparison: is reported solvation free energy, 298 K < -4 kcal/mol? input = `C#C`
Result :: no (0)

Query :: # strict comparison: is reported solvation free energy, 298 K < -4 kcal/mol? input = `CCI`
Result :: no (0)

Query :: # strict comparison: is reported solvation free energy, 298 K < -4 kcal/mol? input = `CCCCCCCCC`
Result :: yes (1)

Query :: # strict comparison: is reported solvation free energy, 298 K < -4 kcal/mol? input = `c1ccc2c(c1)Sc1ccccc1S2`
Result :: yes (1)

Query :: # strict comparison: is reported solvation free energy, 298 K < -4 kcal/mol? input = `O=C(O)c1cccc([N+](=O)[O-])c1`
Result :: yes (1)

Query :: # strict comparison: is reported solvation free energy, 298 K < -4 kcal/mol? input = `CCCCCC`
Result :: no (0)

Query :: # strict comparison: is reported solvation free energy, 298 K < -4 kcal/mol? input = `CCCCCCCC`
Result :: no (0)
